Tested on: plasma protein
Assay: plasma unbound fraction, humans
Format: in vitro ADME
Settings: human
Parameter: fraction unbound

[[record]]
chem_smiles = "COc1cc2nccc(Oc3ccc(NC(=O)NC4CC4)c(Cl)c3)c2cc1C(N)=O"
measured_value = 0.0172


###

Test: PK study in mice (intravenous and oral)
Assay type: in vivo
Conditions: female, BALB/cAnNCrj-nu/nu, mouse, plasma, iv, 3 mg/kg, intravenous 3 mg/kg
Parameter: half-life

[[record]]
chem_smiles = "COc1cc2nccc(Oc3ccc(NC(=O)NC4CC4)c(Cl)c3)c2cc1C(N)=O"
measured_value = "2.05 h"


###

Assay: PK study in rats (intravenous and oral)
Assay type: in vivo
Details: male, Sprague-Dawley, rat, plasma, oral 10 mg/kg
Parameter: Cmax (ng/mL)

[[record]]
compound = "COc1cc2nccc(Oc3ccc(NC(=O)NC4CC4)c(Cl)c3)c2cc1C(N)=O [lenvatinib, Lenvatinib]"
parameter = "Cmax"
measured_value = 16600


###

Tested on: plasma protein
Assay: in vitro plasma protein binding, monkeys
Assay type: in vitro ADME
Details: monkey, plasma; monkeys, 0.3–30 μg/mL; read-out: average fp (unbound fraction in plasma)
Parameter: fraction unbound

[[record]]
compound = "COc1cc2nccc(Oc3ccc(NC(=O)NC4CC4)c(Cl)c3)c2cc1C(N)=O [lenvatinib, Lenvatinib]"
parameter = "fraction unbound"
measured_value = 0.0394


###

Experiment: PK study in rats (intravenous and oral)
Assay type: in vivo
Conditions: male, Sprague-Dawley, rat, plasma, po, 30 mg/kg, across 3, 10, and 30 mg/kg
Parameter: half-life

[[record]]
compound = "COc1cc2nccc(Oc3ccc(NC(=O)NC4CC4)c(Cl)c3)c2cc1C(N)=O [lenvatinib, Lenvatinib]"
parameter = "half-life"
measured_value = "217 to 316 min"


###

Assay: PK study in rats (intravenous and oral)
Assay type: in vivo
Settings: male, Sprague-Dawley, rat, plasma, oral 3 mg/kg
Parameter: AUC(0-inf) (ng·h/mL)

[[record]]
compound = "COc1cc2nccc(Oc3ccc(NC(=O)NC4CC4)c(Cl)c3)c2cc1C(N)=O [lenvatinib, Lenvatinib]"
measurement_units = "ng·h/mL"
measured_value = 20700


###

Assay: PK study in rats (intravenous and oral)
Format: in vivo
Details: male, Sprague-Dawley, rat, plasma, po, 10 mg/kg, oral 10 mg/kg
Parameter: half-life (h)

[[record]]
compound = "COc1cc2nccc(Oc3ccc(NC(=O)NC4CC4)c(Cl)c3)c2cc1C(N)=O [lenvatinib, Lenvatinib]"
measured_value = 5.27

